target: hNET (Homo sapiens, UniProt P23975); construct: expressed in transfected cells; test: Norepinephrine (NE) uptake assay in MDCK-Net6 cells stably transfected with human hNET; type: cell-based; details: test compound 1 μM; [3H]NE uptake, MDCK-Net6 cells; read-out: % Inhibition @ 1 μM (hNET)
Sequence (P23975 whole entry): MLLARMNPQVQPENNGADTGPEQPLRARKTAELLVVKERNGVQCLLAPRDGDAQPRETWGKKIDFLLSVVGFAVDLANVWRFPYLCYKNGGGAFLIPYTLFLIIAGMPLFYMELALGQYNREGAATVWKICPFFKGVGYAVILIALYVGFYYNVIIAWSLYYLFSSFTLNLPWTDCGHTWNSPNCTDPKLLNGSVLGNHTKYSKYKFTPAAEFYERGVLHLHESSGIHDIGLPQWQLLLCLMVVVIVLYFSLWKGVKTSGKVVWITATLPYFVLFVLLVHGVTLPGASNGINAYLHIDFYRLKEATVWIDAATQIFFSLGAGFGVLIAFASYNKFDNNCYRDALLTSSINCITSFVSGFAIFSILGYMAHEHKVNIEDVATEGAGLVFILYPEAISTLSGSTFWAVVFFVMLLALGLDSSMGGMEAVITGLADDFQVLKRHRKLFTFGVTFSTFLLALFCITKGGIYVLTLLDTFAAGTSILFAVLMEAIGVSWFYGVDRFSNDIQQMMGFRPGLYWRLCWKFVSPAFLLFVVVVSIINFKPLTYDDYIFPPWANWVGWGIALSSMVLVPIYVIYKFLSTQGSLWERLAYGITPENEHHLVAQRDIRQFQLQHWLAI
Counter-ions that a name gives are not always drawn.
Quick rule for you: inhibition at 1 µM at 90% or higher means MET, lower means NOT MET.

Molecule	Assigned class
O[C@@H](CN1CCNCC1)[C@@H](c1ccccc1)n1ccc2ccccc21 (racemic) [Example 13, dihydrochloride]	NOT MET
CNC[C@@H](O)[C@H](c1ccccc1)n1ccc2ccc(F)cc21 [Example 186, hydrochloride]	MET
CNC[C@@H](O)[C@H](c1cccc(F)c1)n1cc(C(C)C)c2ccccc21 [Example 155, hydrochloride]	MET
CNC[C@@H](O)[C@H](c1ccccc1OC(F)(F)F)n1ccc2ccccc21 [Example 36, hydrochloride]	NOT MET
CNC[C@@H](O)[C@H](c1cccc(F)c1)N1C(=O)C(C)(C)c2ccccc21 [Example 210, hydrochloride]	MET
CNC[C@@H](O)[C@H](c1ccccc1)n1ccc2ccc(Br)cc21 [Example 129, hydrochloride]	NOT MET
